Data provenance is the supplement of paper PMC13380429.

System: Calu-3
Experiment: drug sensitivity score (DSS) for viability; higher = more toxic; extreme values may be limits of the assay
Conditions: 72 h
In this section, each of the compounds is paired with its reported drug sensitivity score.

Illustrative cases are given below, each with its answer.
| COMPOUND | MEASUREMENT |
| --- | --- |
| CCC(C/C=C/c1ccccc1)(c1ccccc1)N(C)CC1CC1 (stereo not given) | 0 |
| Cc1coc2c1C(=O)C(=O)c1c-2ccc2c(C)cccc12 | 0 |

# get_value(readout='drug sensitivity score', item= c1ccc2c(CCNc3ccc(Nc4ccncc4)cc3)c[nH]c2c1 )
3.7

# get_value(readout='drug sensitivity score', item= CCCCCCN(CCCCCC)C(=O)Cc1c(-c2ccc(F)cc2)[nH]c2ccccc12 )
0

# get_value(readout='drug sensitivity score', item= COc1cc(OC)c(/C=C2/C(=O)Nc3ccccc32)c(OC)c1 )
2.4
